- Tested on: P388 leukemia ip, CD2F1 mice, survival T/C
- testName: NCI In Vivo Anticancer Drug Screen. Data for tumor model P388 Leukemia (intraperitoneal) in CD2F1 (CDF1) mice
- assaySetup: endpoint: median survival time; dose: 100.0 mg/kg/injection; schedule: Q01DX009 (ip); vehicle: Klucel (hydroxypropylcellulose) (HPC)
Toxic doses and inconclusive results are not listed. Rule for the calls: active = survival T/C of 150% or more; inactive = T/C below 125% in these data.
Write down the outcome that applies. Available outcomes: 1 (active), -1 (inactive)

>  <compound>
O=S1(=O)CC(Cl)(Br)C1 (tested in a mixture with another compound)

>  <assignedCategory>
-1

$$$$
>  <compound>
O=C(Nc1ccc(N=C=S)cc1Cl)c1cc(Cl)cc(Cl)c1O

>  <assignedCategory>
-1

$$$$
>  <compound>
COc1ccc(C2CC(c3ccccc3)=Nc3ccccc3S2)cc1 (stereo unspecified)

>  <assignedCategory>
-1

$$$$
>  <compound>
CCCCCCCC(=O)C(=O)c1ccc(O)c(C)c1O

>  <assignedCategory>
-1

$$$$
>  <compound>
Nc1ccn(C2OC(CCl)C(O)C2O)c(=O)n1 (stereo unspecified)

>  <assignedCategory>
1

$$$$
>  <compound>
O=C(c1cccs1)c1ccc(Cl)cc1Cl

>  <assignedCategory>
-1

$$$$

Query :: Would you mind telling me which call this test gave CCCCCCCCCCCCCCOC(=O)c1ccc(O)cc1 ?
Result :: -1

Query :: Check the results log: what was the call for CCOC(=O)c1cc(Cl)cc2c(=O)c3c([nH]c12)C(=O)c1c([nH]c2c(C(=O)OCC)cc(Cl)cc2c1=O)C3=O ?
Result :: -1

Query :: What was the test verdict on CC(CC(=O)c1ccccc1)C(Sc1ccccc1)(Sc1ccccc1)Sc1ccccc1 (stereo unspecified) ?
Result :: -1

Query :: Which outcome was assigned to Cc1ccc(CCN(S(=O)(=O)c2ccc(C)cc2)S(=O)(=O)c2ccc(C)cc2)cc1 in this test?
Result :: -1

Query :: Outcome logged for CC1CN2C(=O)NC(=O)C1(c1ccccc1)C2=O (stereo unspecified) in this assay:
Result :: -1

* * *

- System: P388 leukemia ip, CD2F1 mice, survival T/C
- testName: NCI In Vivo Anticancer Drug Screen. Data for tumor model P388 Leukemia (intraperitoneal) in CD2F1 (CDF1) mice
- assaySetup: endpoint: median survival time; dose: 200.0 mg/kg/injection; schedule: Q01DX005 (ip); vehicle: saline with Tween-80; higher = longer survival
Toxic doses and inconclusive results are not listed.
In this section we review reported T/C values for a set of compounds.

Record excerpt, results attached:
>  <compound>
CN1C(=O)CNC(=O)c2ccc(Cl)cc21

>  <targetSystem>
P388 leukemia ip, CD2F1 mice, survival T/C

>  <T/C>
115 % of control

$$$$
>  <compound>
COc1cc(/C=C/C(=O)c2ccccc2O)cc(OC)c1OC

>  <targetSystem>
P388 leukemia ip, CD2F1 mice, survival T/C

>  <T/C>
97 % of control

$$$$
>  <compound>
C=CCOc1cc2c(cc1C(C)c1ccc(OC)c(OC)c1)OCO2 (stereo unspecified)

>  <targetSystem>
P388 leukemia ip, CD2F1 mice, survival T/C

>  <T/C>
95 % of control

$$$$

Query :: I have this compound here, CC1(C)OC(C(F)(F)F)(C(F)(F)F)c2cc(C(C)(C)C)cc(C(O)(C(F)(F)F)C(F)(F)F)c2S1 , and I need its recorded T/C.
Result :: 115 % of control

Query :: Returns the measured T/C for the input compound. Input: CC(=O)O[C@@]1(C)OC(=O)[C@@]2(c3ccccc3)N(C(C)=O)C(C)=C(C#N)[C@@]12C#N
Result :: 97 % of control

Query :: Quick one: T/C for CC(C)(C)C1=CP(=O)(c2ccccc2)C=C(C(C)(C)C)N1 ?
Result :: 98 % of control
